TESTED ON: androgen receptor (adenovirus AdEasy+rAR in COS-7 cells) (Rattus norvegicus, UniProt P15207)
Construct: expressed in transfected cells
Sequence (P15207 1-902): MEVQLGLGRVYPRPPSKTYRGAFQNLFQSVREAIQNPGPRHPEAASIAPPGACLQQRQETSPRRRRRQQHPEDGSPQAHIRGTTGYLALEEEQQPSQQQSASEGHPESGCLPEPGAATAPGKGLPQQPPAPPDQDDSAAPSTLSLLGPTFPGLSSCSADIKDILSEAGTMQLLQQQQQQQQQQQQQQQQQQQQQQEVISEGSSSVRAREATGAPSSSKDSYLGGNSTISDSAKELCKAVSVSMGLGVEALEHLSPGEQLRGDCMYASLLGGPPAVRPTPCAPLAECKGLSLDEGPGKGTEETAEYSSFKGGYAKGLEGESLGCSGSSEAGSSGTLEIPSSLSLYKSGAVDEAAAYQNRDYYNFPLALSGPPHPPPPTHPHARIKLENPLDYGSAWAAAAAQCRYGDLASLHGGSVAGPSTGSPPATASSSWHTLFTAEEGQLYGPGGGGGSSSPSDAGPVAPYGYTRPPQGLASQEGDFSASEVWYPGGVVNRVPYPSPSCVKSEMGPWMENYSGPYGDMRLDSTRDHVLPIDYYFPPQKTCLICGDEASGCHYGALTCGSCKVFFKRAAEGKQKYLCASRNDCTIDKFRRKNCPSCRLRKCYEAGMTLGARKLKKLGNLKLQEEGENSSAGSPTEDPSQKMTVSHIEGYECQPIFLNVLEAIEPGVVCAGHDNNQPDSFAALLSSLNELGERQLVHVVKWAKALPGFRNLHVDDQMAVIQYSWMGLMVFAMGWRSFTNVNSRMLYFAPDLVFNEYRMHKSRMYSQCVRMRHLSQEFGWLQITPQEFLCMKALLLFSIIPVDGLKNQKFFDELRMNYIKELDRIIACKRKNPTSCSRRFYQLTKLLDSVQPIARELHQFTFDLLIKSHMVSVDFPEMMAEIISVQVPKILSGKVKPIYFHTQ
PROTOCOL NOTES: COS-7 Whole-Cell Androgen Receptor Binding Assay, Adenovirus Transduction
CONDITION SET: COS binding; 3000 nM unless otherwise noted
Protocol: COS-7 cells were plated in 96-well plates at 20,000 cells per well, in a solution of DMEM/F12 (GIBCO) containing 10% (v/v) charcoal-treated fetal bovine serum (Hyclone) and lacking phenol red. […] To each well was then added 50 μL of 0.5% (v/v) Triton X-100 (Sigma) in 1×PBS and the plates placed on a rotary shaker for 5 min. […] To each well was then added 0.2 mL of Microscint-20 (Packard) and the wells counted on a TopCount (Packard). […] Counts per well were measured and percents of inhibition determined. […]
Tag: true if measured inhibition at 3 µM is not below 80%, false if it is.

Worked cases, answers included:
CCS(=O)(=O)CC(C)(O)c1cc2cc(C#N)c(C(F)(F)F)cc2[nH]1 (single isomer, unassigned) [Compound #222] :: false
CC[S+]([O-])CC(C)(O)c1[nH]c2cc(C(F)(F)F)c(C#N)cc2c1C (stereo not shown) [compound 252] :: false
CCS(=O)(=O)CC(C)(O)c1cc2cc([N+](=O)[O-])c(C(F)(F)F)cc2[nH]1 (stereo not shown) [compound 143] :: false
CC(O)(CCS(C)(=O)=O)c1cc2cc([N+](=O)[O-])c(C(F)(F)F)cc2[nH]1 (stereo not shown) [compound 49] :: false
CCSCC(C)(O)c1cc2cc(C#N)c(C(F)(F)F)cc2[nH]1 (stereo not shown) [compound 209] :: false

Could you please find out whether CCC(O)(CS(=O)(=O)CC)c1cc2cc([N+](=O)[O-])c(C(F)(F)F)cc2[nH]1 (stereo not shown) [compound 176] has inhibition at 3 µM that meets 80% or exceeds it?
false

Could you please find out whether CCSCC(C)(O)c1cc2cc([N+](=O)[O-])c(C(F)(F)F)cc2n1C (single isomer, unassigned) [compound 231] has inhibition at 3 µM that meets 80% or exceeds it?
false

Could you please find out whether CCSCC(C)(O)c1cc2cc(C#N)c(C(F)(F)F)cc2n1C (stereo not shown) [compound 236] has inhibition at 3 µM that meets 80% or exceeds it?
true

Could you please find out whether CCC(O)(CSCC(F)(F)F)c1cc2cc([N+](=O)[O-])c(C(F)(F)F)cc2[nH]1 (stereo not shown) [compound 185] has inhibition at 3 µM that meets 80% or exceeds it?
true

Could you please find out whether CC(O)(CSc1ccc(N)cc1)c1cc2cc(Cl)c(C(F)(F)F)cc2[nH]1 (stereo not shown) [compound 104] has inhibition at 3 µM that meets 80% or exceeds it?
true

Could you please find out whether CC(O)(CSC1CCCC1)c1cc2cc([N+](=O)[O-])c(C(F)(F)F)cc2[nH]1 (stereo not shown) [compound 173] has inhibition at 3 µM that meets 80% or exceeds it?
false

Could you please find out whether CC(O)(CS(=O)(=O)c1ccc(N)cc1)c1cc2cc(Cl)c(C(F)(F)F)cc2[nH]1 (stereo not shown) [compound 118] has inhibition at 3 µM that meets 80% or exceeds it?
false

Could you please find out whether CCC(O)(CSCC(F)(F)F)c1cc2cc(Cl)c(C(F)(F)F)cc2[nH]1 (stereo not shown) [compound 192] has inhibition at 3 µM that meets 80% or exceeds it?
true

Could you please find out whether CSCC(C)(O)c1cc2cc([N+](=O)[O-])c(C(F)(F)F)cc2[nH]1 (stereo not shown) [compound 139] has inhibition at 3 µM that meets 80% or exceeds it?
true

Could you please find out whether CC(O)(CSCC(F)(F)F)c1cc2cc(Cl)c(C(F)(F)F)cc2[nH]1 (stereo not shown) [compound 190] has inhibition at 3 µM that meets 80% or exceeds it?
true
